Tested on: 293T cells
measurement_notes: Cytotoxicity test (CCK-8 cell viability) in 293T cells
Format: cell-based, human
experimental_context: 100 uM, 24 hours co-incubation, 293T cell line, % of control
Give Cell viability test results (CCK) 100 uM for every item shown.
Entry rule: numbers only, all in %<.

IN: Query: Cell viability test results (CCK) 100 uM; subject: C[C@H]1CC[C@@H](C(=O)O)CN1C(=O)Cc1ccc(N)cc1 [BnH12070]
OUT: 90

IN: Query: Cell viability test results (CCK) 100 uM; subject: C[C@H]1CCCCN1C(=O)Cc1ccc(F)cc1Cl [BnH12005]
OUT: 90

IN: Query: Cell viability test results (CCK) 100 uM; subject: C[C@H]1CC[C@@H](C(=O)O)CN1C(=O)Cc1ccco1 [BnH12035]
OUT: 85

IN: Query: Cell viability test results (CCK) 100 uM; subject: Cc1cccc(CC(=O)N2C[C@H](C(=O)O)CC[C@@H]2C)c1 [BnH12030]
OUT: 85

IN: Query: Cell viability test results (CCK) 100 uM; subject: Cc1ccc(CC(=O)N2C[C@H](C(=O)O)CC[C@@H]2C)cc1 [BnH12024]
OUT: 99

IN: Query: Cell viability test results (CCK) 100 uM; subject: C[C@H]1CC[C@@H](C(=O)O)CN1C(=O)Cc1cccs1 [BnH12034]
OUT: 85

IN: Query: Cell viability test results (CCK) 100 uM; subject: CCC(=O)N1C[C@H](C(=O)O)CC[C@@H]1C [BnH12008]
OUT: 90

###

System: 293T cells
measurement_notes: Cytotoxicity test (CCK-8 cell viability) in 293T cells
Format: cell-based, human
experimental_context: 10 uM, 24 hours co-incubation, 293T cell line, % of control
endpoint_name: Cell viability test results (CCK) 10 uM (%<)
Entry rule: numbers only, all in %<.

IN: Query: Cell viability test results (CCK) 10 uM; subject: C[C@H]1CC[C@@H](C(=O)O)CN1C(=O)Cc1ncccn1 [BnH12041]
OUT: 90

IN: Query: Cell viability test results (CCK) 10 uM; subject: C[C@@H]1CC[C@H](C(=O)O)CN1C(=O)Cc1ccc(F)cc1Cl [BnH12001 enantiomer (3S,6R, 98%<)]
OUT: 99

IN: Query: Cell viability test results (CCK) 10 uM; subject: O=C(O)[C@H]1CCCN1C(=O)Cc1ccc(F)cc1Cl [BnH12012]
OUT: 95

IN: Query: Cell viability test results (CCK) 10 uM; subject: C[C@H]1CC[C@@H](C(=O)NO)CN1C(=O)Cc1ccc(F)cc1Cl [BnH12009]
OUT: 95

IN: Query: Cell viability test results (CCK) 10 uM; subject: C[C@H]1CC[C@@H](C(=O)O)CN1C(=O)Cc1ccc(N)cc1 [BnH12070]
OUT: 99

IN: Query: Cell viability test results (CCK) 10 uM; subject: C[C@H]1CC[C@@H](C(=O)O)CN1C(=O)Cc1ccc(Cl)c(Cl)c1 [BnH12028]
OUT: 90

IN: Query: Cell viability test results (CCK) 10 uM; subject: C[C@H]1CC[C@@H](C(=O)O)CN1C(=O)Cc1ccc(Cl)cc1 [BnH12023]
OUT: 95

IN: Query: Cell viability test results (CCK) 10 uM; subject: C[C@H]1CC[C@@H](C(=O)O)CN1C(=O)Cc1cncnc1 [BnH12040]
OUT: 85

IN: Query: Cell viability test results (CCK) 10 uM; subject: C[C@H]1CC[C@@H](C(=O)O)CN1C(=O)Cc1ccc(O)cc1 [BnH12079]
OUT: 99

IN: Query: Cell viability test results (CCK) 10 uM; subject: Cc1cccc(CC(=O)N2C[C@H](C(=O)O)CC[C@@H]2C)c1 [BnH12030]
OUT: 95

IN: Query: Cell viability test results (CCK) 10 uM; subject: O=C(O)[C@@H]1CCCN1C(=O)Cc1ccc(F)cc1Cl [BnH12013]
OUT: 99

IN: Query: Cell viability test results (CCK) 10 uM; subject: C[C@H]1CCCCN1C(=O)Cc1ccc(F)cc1Cl [BnH12005]
OUT: 99

IN: Query: Cell viability test results (CCK) 10 uM; subject: CCC(=O)N1C[C@H](C(=O)O)CC[C@@H]1C [BnH12008]
OUT: 95

IN: Query: Cell viability test results (CCK) 10 uM; subject: O=C(O)[C@@H]1CCCN(C(=O)Cc2ccc(F)cc2Cl)C1 [BnH12004]
OUT: 95

IN: Query: Cell viability test results (CCK) 10 uM; subject: CC(C)C1CCC(C(=O)O)CN1C(=O)Cc1ccc(F)cc1Cl (stereo not shown) [BnH12096]
OUT: 70

IN: Query: Cell viability test results (CCK) 10 uM; subject: Cc1ccc(CC(=O)N2C[C@H](C(=O)O)CC[C@@H]2C)cc1 [BnH12024]
OUT: 99

IN: Query: Cell viability test results (CCK) 10 uM; subject: C[C@H]1CC[C@@H](C(N)=O)CN1C(=O)Cc1ccc(F)cc1Cl [BnH12022]
OUT: 99

IN: Query: Cell viability test results (CCK) 10 uM; subject: C[C@H]1CC[C@@H](C(=O)[O-])CN1C(=O)Cc1ccccn1.[Na+] [BnH12039]
OUT: 95

IN: Query: Cell viability test results (CCK) 10 uM; subject: C[C@H]1CC[C@@H](C(=O)O)CN1C(=O)Cc1ccc(N(C)C)cc1 [BnH12076]
OUT: 95
